Listing of entries alongside the reported % reduction in binding signal.
Biological target: trypsin
Test: phage TRF ELISA; GlyAla (Pro3Gly, Arg4Ala) mutant against the clone
Numbers only; they are read as %.

Below: 2 binders and their reported % reduction in binding signal.
KB_C07 (scFv, V domains shown) VH: EVQLVESGGGLVRPGGSLRLSCAASGFTFSSYAMSWVRQAPGKGLEWVSAISGSGGSTYYADSVKGRFTISRDNTKNSLYLQMTSLRADDTAFYYCVKDFGPGYGTGWFDYWGPGTLVTVSS VL: AVNWYQQLPGKAPKLLIYAAVGCPRILMRCKQDSDCLAGCVCGPNGFCGSASGVSDRFSGSKSGTSASLAISGLRSEDEADYYCASWDDSLRGYVFGTGTKVTVLG | 100
KB_C10 (scFv, V domains shown) VH: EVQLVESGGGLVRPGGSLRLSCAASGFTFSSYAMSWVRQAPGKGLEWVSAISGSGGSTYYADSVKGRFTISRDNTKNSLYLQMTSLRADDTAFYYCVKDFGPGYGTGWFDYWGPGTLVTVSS VL: AVNWYQQLPGKAPKLLIYAAGPCPRILMRCKQDSDCLAGCVCGPNGFCGADSGVSDRFSGSKSGTSASLAITGLQAEDEGDYYCAAWDDSLNGLVFGGGTKVTVLG | 100

Ask | Return reported % reduction in binding signal; argument: KB_B01 (scFv, V domains shown) VH: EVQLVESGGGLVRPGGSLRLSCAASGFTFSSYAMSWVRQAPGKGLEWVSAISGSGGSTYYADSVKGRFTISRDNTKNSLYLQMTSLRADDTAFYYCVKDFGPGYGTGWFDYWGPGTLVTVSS VL: AVNWYQQLPGKAPKLLIYAAAGCPRILMRCKQDSDCLAGCVCGPNGFCGTRSGVSDRFSGSKSGTSASLAISGLRSEDEADYYCAAWDDSLRAYVFGTGTKLTVLG
Reply | 95

Data origin: patent US20260043020A1
